Reference for the values: the Deep4Chem optical property database

Exercise: for every item that follows, state its recorded emission maximum.
experiment: solvent given as SMILES; conditions: in CCCCCC
Field format: number, assumed nm, no unit text.

Write down emission maximum measured for item `O=CC1=C(c2ccc(-c3cccs3)s2)CC1`
464

Write down emission maximum measured for item `Cc1cc(C)n2c1C=C1c3ccccc3C(c3c[nH]c4ccccc34)=[N+]1[B-]2(F)F`
598

Write down emission maximum measured for item `N#Cc1ccc2c(c1)CCc1nc(-c3ccc([N+](=O)[O-])cc3)c3c(c1-2)CCc1cc(C#N)ccc1-3`
413

Write down emission maximum measured for item `CC1=CC(C)=[N+]2C1=C(c1ccc(N3CCCCC3)cc1)c1c(C)cc(C)n1[B-]2(F)F`
511

Write down emission maximum measured for item CCN1C(=O)C(C2C(=O)c3c4ccccc4cc4cc5ccccc5c2c34)C(=O)N(CC)C1=S (stereo not given)
544

Write down emission maximum measured for item O=C1CC(c2cccc([N+](=O)[O-])c2)c2c(c3ccccc3c3nc4ccccc4nc23)O1 (stereo not given)
417

Write down emission maximum measured for item `CC(C)[Si](C#Cc1c2cc3ccccc3cc2c(C#C[Si](C(C)C)(C(C)C)C(C)C)c2nc3c(ccc4cc5ccccc5cc43)nc12)(C(C)C)C(C)C`
654

Write down emission maximum measured for item `CC1=CC(C)=[N+]2C1=C(c1ccc(N(C)C)cc1)c1c(C)cc(C)n1[B-]2(F)F`
511

Write down emission maximum measured for item `O=c1c2ccccc2n2c3ccccc3c(=O)c3cc(-c4ccccc4)cc1c32`
447

Write down emission maximum measured for item `CCCCCCC1(CCCCCC)c2cc(-c3nc(-c4ccc5c(c4)C(CCCCCC)(CCCCCC)c4cc(N6c7ccccc7Oc7ccccc76)ccc4-5)nc(-c4ccc5c(c4)C(CCCCCC)(CCCCCC)c4cc(N6c7ccccc7Oc7ccccc76)ccc4-5)n3)ccc2-c2ccc(N3c4ccccc4Oc4ccccc43)cc21`
485

Write down emission maximum measured for item `O=c1oc2c(ccc3ccccc32)nc1-c1ccccc1`
459

Write down emission maximum measured for item `c1ccc2cc3cc(-c4cc(-c5nccs5)nc(-c5nccs5)c4)ccc3cc2c1`
376

Write down emission maximum measured for item `Cc1cccc(C)c1Nc1ccc(/C=C/c2ccccc2)cc1`
375

Write down emission maximum measured for item `c1ccc2nc3cccc(-c4ccc(-n5c6ccccc6c6ccccc65)cc4)c3cc2c1`
434

Write down emission maximum measured for item `COC1=[N+]2C(=C(c3ccccc3)c3ccc(OC)n3[B-]2(F)F)C=C1`
623

Write down emission maximum measured for item `CCN(CC)c1ccc2cc(-c3nc4ccccc4s3)c(=O)oc2c1`
463

Write down emission maximum measured for item `CCc1c(C)[nH]c(C2=[N+]3C(=C(C)c4c(C)c(CC)c(C)n4[B-]3(F)F)c3ccccc32)c1C`
636

Write down emission maximum measured for item CCCCC1(c2ccccc2)Nc2c(-c3ccc(N(c4ccccc4)c4ccccc4)cc3)ccc(-c3ccc(N(c4ccccc4)c4ccccc4)cc3)c2N=C1c1ccccc1 (stereo not given)
521

Write down emission maximum measured for item `O=c1oc2cc3ccccc3cc2nc1-c1ccccc1`
500

Write down emission maximum measured for item `CC(C)[Si](C#Cc1c2ccccc2c(C#C[Si](C(C)C)(C(C)C)C(C)C)c2nc3c(nc12)Cc1ccccc1-3)(C(C)C)C(C)C`
494

Write down emission maximum measured for item `N#Cc1ccc(-c2ccc3c(c2)c2cc(-c4ccc(C#N)cc4)ccc2c2c3nc(-c3ccc(-c4ccc(N(c5ccccc5)c5ccccc5)cc4)cc3)n2-c2ccccc2)cc1`
421.18

Write down emission maximum measured for item `c1ccc(-c2nc(-c3ccccc3)nc(-c3cc(-n4c5ccccc5c5ccccc54)c(-n4c5ccccc5c5ncccc54)c(-n4c5ccccc5c5ccccc54)c3)n2)cc1`
422.11

Write down emission maximum measured for item `CC1=CC(C)=[N+]2C1=C(c1c3ccccc3cc3ccccc13)c1c(C)cc(C)n1[B-]2(F)F`
515

Write down emission maximum measured for item `CCCCCCC1(CCCCCC)c2cc(-c3nc(-c4ccc5c(c4)C(CCCCCC)(CCCCCC)c4cc(N6c7ccccc7Sc7ccccc76)ccc4-5)nc(-c4ccc5c(c4)C(CCCCCC)(CCCCCC)c4cc(N6c7ccccc7Sc7ccccc76)ccc4-5)n3)ccc2-c2ccc(N3c4ccccc4Sc4ccccc43)cc21`
462

Write down emission maximum measured for item `COc1ccccc1C1=C2C(C)=CC(C)=[N+]2[B-](F)(F)n2c(C)cc(C)c21`
516

====

assay: solvent given as SMILES; conditions: in C1CCOC1
Exercise: for every item that follows, state its recorded emission maximum.
Field format: number, assumed nm, no unit text.

Write down emission maximum measured for item `CCc1c(C)[nH]c(C2=[N+]3C(=Cc4c(C)c(CC)c(C)n4[B-]3(F)F)c3ccccc32)c1C`
644

Write down emission maximum measured for item `CC(C)(C)c1ccc(-c2c(-c3cccc(-n4c5ccccc5c5ccccc54)c3)c(C#N)c(-c3cccc(-n4c5ccccc5c5ccccc54)c3)c(-c3ccc(C(C)(C)C)cc3)c2-c2ccc(C(C)(C)C)cc2)cc1`
412

Write down emission maximum measured for item `CCOc1cc2c(cc1/C=C/C(=C(C#N)C#N)c1ccccc1)c1ccccc1n2CC`
541

Write down emission maximum measured for item `CCCCCCc1ccc(-n2c3[n+](c4c5ccccc5c5ccccc5c42)[B-](C)(C)c2ccccc2-3)cc1`
384

Write down emission maximum measured for item `c1ccc2cc(-n3cnc4ccccc43)ccc2c1`
374

Write down emission maximum measured for item `F[Si-](F)(c1c2ccccc2cc2ccccc12)(c1c2ccccc2cc2ccccc12)c1c2ccccc2cc2ccccc12`
396

Write down emission maximum measured for item `CN(C)c1ccc(/C=C/C=C/c2ccc([N+](=O)[O-])c(O)c2)cc1`
686

Write down emission maximum measured for item `N#Cc1c(N2CCCCC2)cc(-c2ccc3ccccc3c2)c2c1-c1ccccc1C2`
462

Write down emission maximum measured for item `CCN(CC)c1ccc(/C=C/c2ccc(-c3ccc(/C=C/c4ccc(N(CC)CC)cc4)s3)s2)cc1`
544

Write down emission maximum measured for item `CC1=CC(C)=[N+]2C1=C(c1ccc(N(C)C)cc1)c1c(C)cc(C)n1[B-]2(F)F`
513

Write down emission maximum measured for item `Cc1cccc2[n+]1[B-](F)(F)n1c(c3cccc4cccc1c43)=N2`
496

====

experiment: solvent given as SMILES; conditions: in ClC(Cl)Cl
reported.endpoint: emission maximum (nm)
Field format: number, assumed nm, no unit text.

Write down emission maximum measured for item `CC[n+]1c(C=C2C(=O)C(C=C3N(C)c4ccccc4C3(C)C)=C2[O-])sc2ccccc21`
666

Write down emission maximum measured for item `C(=C\c1ccc(/C=C/c2ccc(N(c3ccccc3)c3ccccc3)cc2)c2nsnc12)/c1ccc(N(c2ccccc2)c2ccccc2)cc1`
651

Write down emission maximum measured for item `O=Cc1c(O)c(-c2nc3ccccc3s2)cc2ccccc12`
505

Write down emission maximum measured for item `Cc1cc(C2=Cc3cccc[n+]3[B-](F)(F)O2)ccc1N(C)C`
491

Write down emission maximum measured for item `CN1C(=CC2=C([S-])C(=Cc3sc4ccccc4[n+]3C)C2=O)C(C)(C)c2ccccc21`
676

Write down emission maximum measured for item `CN(C)c1ccc(C2=[N+]3C(=Nc4c(-c5ccccc5)cc(-c5ccc(N(C)C)cc5)n4[B-]3(F)F)C(c3ccccc3)=C2)cc1`
823

Write down emission maximum measured for item `COc1ccc2cc3c(C)cc(=O)oc3cc2c1`
443

Write down emission maximum measured for item `CN(C)c1ccc(-c2ccc(-c3ncc4ccccn34)cc2)cc1`
488

Write down emission maximum measured for item `CC1=CC(C)=[N+]2C1=C(C1=C(C)C3=C(C)c4c(C)cc(C)n4[B-](F)(F)[N+]3=C1C)c1c(C)cc(C)n1[B-]2(F)F`
527

Write down emission maximum measured for item `COc1ccc(-c2oc3cccc4c5c(-c6ccc(OC)cc6)/c(=N/S(=O)(=O)C(F)(F)F)oc6cccc(c2c34)c65)cc1`
612

Write down emission maximum measured for item `CCN1C(=CC2=C([O-])C(=Cc3sc4ccccc4[n+]3CC)C2=O)Sc2ccccc21`
687

Write down emission maximum measured for item `COc1cc(OC)c2cc(-c3ccccc3CC#N)c(=O)oc2c1`
422

Write down emission maximum measured for item `CC[N+](CC)=c1ccc2c(-c3ccccc3C(=O)O)c3c(=O)oc4cc5c(cc4c3oc-2c1)CCCN5C`
647

Write down emission maximum measured for item `COc1cc(N(c2ccc(C=C(C#N)C#N)c(OC)c2)c2ccc(C=C(C#N)C#N)c(OC)c2)ccc1C=C(C#N)C#N`
514

Write down emission maximum measured for item `CCCCCCCCc1ccc(-n2c3c4ccccc4nc(-c4ccc(C#N)cc4)c3c3c2c2c(-c4ccc(C#N)cc4)nc4ccccc4c2n3-c2ccc(CCCCCCCC)cc2)cc1`
510

Write down emission maximum measured for item `CCOc1cc2c(cc1/C=C/C(=C(C#N)C#N)c1ccccc1)c1ccccc1n2CC`
550

====

assay: solvent given as SMILES; settings: in C1CCOC1
reported.endpoint: emission maximum

Write down emission maximum measured for item `CC1=[N+]2C(=C(c3ccc(C#N)cc3)c3ccc(C)n3[B-]2(F)F)C=C1`
540 nm

Write down emission maximum measured for item `c1cc2c3c(cccc3c1)-c1c-2c2c3ccccc3c3ccc4c5c6c(c7c8ccccc8c8ccc9c%10c%11c(c%12c%13ccccc%13c%13ccc%14c1c1c2c3c4c2c1c1c%14c%13c%12c%10c1c1c9c8c7c5c21)-c1cccc2cccc-%11c12)-c1cccc2cccc-6c12`
594 nm

Write down emission maximum measured for item `O=Cc1ccc(C2=C3C=c4c(oc5ccccc45)=[N+]3[B-](F)(F)n3c2cc2c4ccccc4oc23)cc1`
615 nm

Write down emission maximum measured for item `CCCCCOc1cc2oc(=O)c3c4occc4c4ccc5cccc6c(c1)c2c3c4c56`
433 nm

Write down emission maximum measured for item `O=Cc1c(O)c(-c2nc3ccccc3s2)cc2ccccc12`
497 nm

Write down emission maximum measured for item `CN(C)c1ccc(-c2nc(-c3ccc(N(C)C)cc3)c3ccccc3n2)cc1`
528 nm

Write down emission maximum measured for item `CCCCCCCCN1c2ccccc2Sc2cc(/C=C/c3ccc(N(c4ccc(/C=C/c5ccc6c(c5)Sc5ccccc5N6CCCCCCCC)cc4)c4ccc(/C=C/c5ccc(/C=C/c6ccc(N(c7ccc(/C=C/c8ccc(N(c9ccccc9)c9ccccc9)cc8)cc7)c7ccc(/C=C/c8ccc(N(c9ccccc9)c9ccccc9)cc8)cc7)cc6)c6nsnc56)cc4)cc3)ccc21`
653 nm

Write down emission maximum measured for item `COc1ccc2cc(-c3ccc([N+](=O)[O-])cc3)ccc2c1`
534 nm

Write down emission maximum measured for item `CN(C)c1ccc(/C=C/c2cccnn2)cc1`
476 nm

Write down emission maximum measured for item `CCCCCCC1(CCCCCC)c2cc(-c3nc(-c4ccc5c(c4)C(CCCCCC)(CCCCCC)c4cc(N6c7ccccc7Oc7ccccc76)ccc4-5)nc(-c4ccc5c(c4)C(CCCCCC)(CCCCCC)c4cc(N6c7ccccc7Oc7ccccc76)ccc4-5)n3)ccc2-c2ccc(N3c4ccccc4Oc4ccccc43)cc21`
616 nm

Write down emission maximum measured for item `CCCCCCC1(CCCCCC)c2cc(-c3nc(-c4ccc5c(c4)C(CCCCCC)(CCCCCC)c4cc(N6c7ccccc7Sc7ccccc76)ccc4-5)nc(-c4ccc5c(c4)C(CCCCCC)(CCCCCC)c4cc(N6c7ccccc7Sc7ccccc76)ccc4-5)n3)ccc2-c2ccc(N3c4ccccc4Sc4ccccc43)cc21`
626 nm

Write down emission maximum measured for item `F[B-]1(F)n2c(-c3ccccc3)cnc2-c2cccc[n+]21`
509 nm

Write down emission maximum measured for item `FC(F)(F)c1ccc(/C=C2\C=C(c3ccccc3)C=C2c2ccccc2)cc1`
516 nm

Write down emission maximum measured for item `CCCCCCCCCCn1nnc(-c2ccc(C#Cc3ccc(C#Cc4ccc(-c5nnn(CCCCCCCCCC)n5)cc4)c4nc5c6ccccc6c6ccccc6c5nc34)cc2)n1`
495 nm

Write down emission maximum measured for item `C(=C\c1ccc(/C=C/c2ccc(N(c3ccccc3)c3ccccc3)cc2)c2nsnc12)/c1ccc(N(c2ccccc2)c2ccccc2)cc1`
637 nm

Write down emission maximum measured for item `CSc1nc(-c2ccc(-n3c4ccccc4c4ccccc43)cc2)cc(-c2ccc(-n3c4ccccc4c4ccccc43)cc2)n1`
447 nm

Write down emission maximum measured for item `CCCCCCCCN1c2ccc(C#Cc3ccc(F)cc3)cc2Sc2cc(C=O)ccc21`
513 nm

Write down emission maximum measured for item `Cc1cc(-c2ccc(-n3c4ccccc4c4ccccc43)cc2)nc(-c2ccc(-n3c4ccccc4c4ccccc43)cc2)n1`
423 nm
